# Lookup of reported pIC50 keyed by entry
Test system: Escherichia coli
test-summary: In vitro dissociation constant of compound required for inhibition of Escherichia coli translation was determined
Format: functional, organism-based
pIC50 here is simply -log10 of the concentration when that concentration is written in mol/L.

CN(C)CCCOc1ccc(C(NC(=O)c2ccc(-c3cccc(NC(=O)c4ccccc4I)c3)o2)C(=O)N2CCNCC2)cc1 (stereo not given); 4.42

[in] Could you share what pIC50 was measured for "Cc1nc2ccc(C(=O)Nc3cccc(-c4ccc(C(=O)N[C@H](CCN)C(=O)N5CCNCC5)o4)c3)cc2nc1C" , tested on Escherichia coli?
[out] 4.82

[in] Reported pIC50 for Escherichia coli, given CN(C)CCCOc1ccc(C(NC(=O)c2ccc(-c3cccc(NC(=O)c4ccc(Br)cc4)c3)o2)C(=O)N2CCNCC2)cc1 (stereo not given) ?
[out] 5.30

[in] Under Escherichia coli: pIC50 value of CCc1c(C)nc2ccc(C(=O)Nc3cccc(-c4ccc(C(=O)NC(C(=O)N5CCNCC5)c5ccc(OCCCN(C)C)cc5)o4)c3)cc2c1Cl (stereo not given) ?
[out] 6.11

[in] Form entry - test system: Escherichia coli; read-out: pIC50; compound: "NCC[C@@H](NC(=O)c1ccc(-c2cccc(NC(=O)c3cnc4ccccc4c3)c2)o1)C(=O)N1CCNCC1"
[out] 4.34

[in] I'm curious: which pIC50 was measured for Cc1nc2ccc(C(=O)Nc3cccc(-c4ccc(C(=O)NC(C(=O)N5CCNCC5)c5ccc(OCCCN(C)C)cc5)o4)c3)cc2nc1C (stereo not given) tested on Escherichia coli?
[out] 6.00

[in] Entry CN(C)CCCOc1ccc(C(NC(=O)c2ccc(-c3cccc(NC(=O)c4ccc5ccccc5c4)c3)o2)C(=O)N2CCNCC2)cc1 (stereo not given) , system Escherichia coli: what pIC50 was measured?
[out] 5.00

[in] Any idea what pIC50 came out for CN(C)CCCOc1ccc(C(NC(=O)c2ccc(-c3cccc(NC(=O)c4ccccc4)c3)o2)C(=O)N2CCNCC2)cc1 (stereo not given) on Escherichia coli?
[out] 4.40

[in] Item: CN(C)CCCOc1ccc(C(NC(=O)c2ccc(-c3cccc(NC(=O)c4nncs4)c3)o2)C(=O)N2CCNCC2)cc1 (stereo not given) Test system: Escherichia coli Read-out: pIC50 Value: ?
[out] 4.89

[in] Kindly state the measured pIC50 obtained for "NCC[C@@H](NC(=O)c1ccc(-c2cccc(NC(=O)c3ccc4nc(O)c(O)nc4c3)c2)o1)C(=O)N1CCNCC1" with Escherichia coli.
[out] 4.85

[in] Observed pIC50 on Escherichia coli for CN(C)CCCOc1ccc(C(NC(=O)c2ccc(-c3cccc(NC(=O)c4ccc(-c5ccccc5)cc4)c3)o2)C(=O)N2CCNCC2)cc1 (stereo not given) , please.
[out] 5.05

* * *

System: Escherichia coli
test-summary: In vitro dissociation constant of compound required for inhibition of Escherichia coli translation was determined
Format: functional, organism-based
assay-readout: IC50

NCC[C@@H](NC(=O)c1ccc(-c2cccc(N)c2)o1)C(=O)N1CCNCC1; > 100 µM
CN(C)CCCOc1ccc(C(NC(=O)c2ccc3nc(O)c(O)nc3c2)C(=O)N2CCNCC2)cc1 (centres undefined); > 200 µM
CN(C)CCCOc1ccc(C(NC(=O)c2ccc(-c3cccc(NC(=O)C4CCCCC4)c3)o2)C(=O)N2CCNCC2)cc1 (centres undefined); > 100 µM

[in] Field: IC50 (Escherichia coli). Entry: CN(C)CCCOc1ccc(C(NC(=O)c2ccc(-c3cccc(N)c3)o2)C(=O)N2CCNCC2)cc1 (centres undefined)
[out] > 100 µM
